Hello, the source for this data is PubChem BioAssay (NCI), in case you need it.

Measured growth values are reported for all entries that follow.
- Tested on: UACC-62 melanoma
- EXPERIMENT SUMMARY: NCI-60 one-dose screen, 48 h (100 = growth as untreated, 0 = no growth, -100 = all killed)
- ASSAY CONTEXT: 10 µM unless noted
This is part of a sample that, as a whole, favours compounds with a hit. Of some 83,000 tested, about 20% had one in any assay.
# number only, unit % dropped from output

Some molecules with recorded growth:
>>> test_value("CCNC(=S)NNC(=O)c1cc2ccc1CCc1ccc(cc1)CC2")
93.4
>>> test_value("CCCC/C(=N\\N=C(N)N)c1ccc(F)cc1")
45.3
>>> test_value("COc1cc(NCCCN(CC(C)C)CC(C)C)c2ncccc2c1")
89
>>> test_value("CCOC(=O)C1CC(=O)c2cc(OC)c(OC)cc2C1 (stereo unspecified)")
88.5
>>> test_value("c1ccc(N2N=C(c3cccc(Nc4ccncc4)c3)CC2c2ccc3c(c2)OCO3)cc1 (stereo unspecified)")
62.1
>>> test_value("COc1ccc(C2CC(c3cccc(Nc4ccncc4)c3)=NN2c2ccccc2)cc1 (stereo unspecified)")
97
>>> test_value("COC(=O)Nc1ccc(NC(=O)OC)cc1")
103
>>> test_value("O=C1Nc2ccccc2/C1=C\\c1cccc(/C=C2/C(=O)Nc3ccccc32)n1")
-67.3

Query :: Tell me growth reported for "Cc1cn(-c2cc(C(=O)Nc3cccc(C#Cc4cccc5[nH]nc(N)c45)c3)cc(C(F)(F)F)c2)cn1"
Result :: 12.2

Query :: Tell me growth reported for Cc1ccc(C2CC(c3cccc(Nc4ccncc4)c3)=NN2c2ccc(Cl)cc2)cc1 (stereo unspecified)
Result :: -98.3

Query :: Tell me growth reported for "CN1C2CCC1CN(c1cnc(C(=O)Nc3cc(F)cc4cccnc34)cn1)C2"
Result :: 94.9

###

Measured growth values are reported for all entries that follow.
- System: HCC-2998 colon
- EXPERIMENT SUMMARY: NCI-60 one-dose screen, 48 h (100 = growth as untreated, 0 = no growth, -100 = all killed)
- ASSAY CONTEXT: 10 µM unless noted
Compounds without any hit were thinned out: in the full panel of roughly 83,000, 20% have a hit.
# number only, unit % dropped from output

Some compounds with recorded growth:
>>> test_value("CC(C)(C#N)N1CCN(c2ccccc2Cl)CC1")
91.4
>>> test_value("NC(=O)c1cccc(-c2ccccc2N2CCCCC2)c1")
102
>>> test_value("COc1ccc2c(/C=C3/C(=O)NC(=S)NC3C)cc(=O)oc2c1 (configuration not stated)")
96
>>> test_value("CN(Cc1ccccc1)c1nc(Cl)c(C2CC(c3ccc(Cl)cc3)=Cc3[nH][nH]c(=O)c32)s1 (configuration not stated)")
104

Query :: Tell me growth reported for "O=C(Nc1ccccc1)Oc1ccccc1-c1ccccc1"
Result :: 107

Query :: Tell me growth reported for "COc1cc2oc(-c3cccc(C(=O)Nc4ccc(Cl)cc4)c3)cc(=O)c2c(OC)c1OC"
Result :: 22.6

Query :: Tell me growth reported for "COc1ccc(C(=O)c2cc3c(N)c(C(=O)Nc4cccc(OC)c4)sc3nc2C)cc1"
Result :: 19.5

Query :: Tell me growth reported for "COc1ccc(Cn2nc(-c3ccccc3)c3c2CCc2cnoc2-3)cc1"
Result :: 67.4

Query :: Tell me growth reported for "CC1(C)CCCN1CCCN1c2ccccc2Sc2ccc(Cl)cc21"
Result :: 56.7

Query :: Tell me growth reported for Cc1ccc(C2CC(c3cccc(Nc4ccncc4)c3)=NN2c2ccccc2)cc1 (configuration not stated)
Result :: -92.2

###

- Test system: HT29 colon
- EXPERIMENT SUMMARY: NCI-60 one-dose screen, 48 h (100 = growth as untreated, 0 = no growth, -100 = all killed)
- ASSAY CONTEXT: 10 µM unless noted
Compounds without any hit were thinned out: in the full panel of roughly 83,000, 20% have a hit.
Measured growth values are reported for all entries that follow.
# number only, unit % dropped from output

>>> test_value("Cc1ccc(C(c2c(O)c3cc(Br)ccc3[nH]c2=O)c2c(O)c3cc(Br)ccc3[nH]c2=O)cc1")
97.5
>>> test_value("CCN1C(=O)/C(=c2\\sc3n(c2=O)NC2C(N=3)N(CC)C(=O)N2CC)c2ccccc21 (stereo not given)")
12.9
>>> test_value("COc1ccc(CNC(=O)COc2ccc(/C=N/Nc3nc4ccccc4s3)cc2)cc1")
35.5

Query :: Tell me growth reported for O=C1CCC(NC(=S)Nc2ccccc2)N1 (stereo not given)
Result :: 98.3

Query :: Tell me growth reported for CC(O)/C=C/C=C/C(O)CC/C=C/C(=O)NCC(C)(C)O (stereo not given)
Result :: 102

###

- Test system: SN12C renal
- EXPERIMENT SUMMARY: NCI-60 one-dose screen, 48 h (100 = growth as untreated, 0 = no growth, -100 = all killed)
- ASSAY CONTEXT: 10 µM unless noted
The panel holds about 83,000 compounds, 20% with a hit somewhere; the sample as a whole holds those more often.
Measured growth values are reported for all entries that follow.
# number only, unit % dropped from output

Some compounds with recorded growth:
>>> test_value("Cn1c2c(Cl)c(Cl)ccc2c2cc(N)[nH]c(=O)c21")
92
>>> test_value("CCCCCCc1nc2nc(Cl)c(Cl)nc2[nH]1")
60.8
>>> test_value("Fc1ccc(C2CC(c3cccc(Nc4ccncc4)c3)=NN2c2cc(Cl)cc(Cl)c2)cc1 (stereo unspecified)")
72
>>> test_value("COc1ccc2c(c1)OC13Oc4cc(OC)ccc4C=C1CCCC3=C2")
44.1
>>> test_value("COc1ccc(-c2nc(N/N=C/c3cccc(O)c3)nc(N3CCOCC3)c2C#N)cc1")
78.3

Query :: Tell me growth reported for "S=c1[nH]cccc1-c1nnc2n1Nc1nc3ccc(Cl)cc3cc1CS2"
Result :: 102

###

Measured growth values are reported for all entries that follow.
- Test system: A549/ATCC NSCLC
- EXPERIMENT SUMMARY: NCI-60 one-dose screen, 48 h (100 = growth as untreated, 0 = no growth, -100 = all killed)
- ASSAY CONTEXT: 10 µM unless noted
About 83,000 compounds went through this panel and 20% of them were active in at least one assay; those are over-represented in the sample as a whole.
# number only, unit % dropped from output

Some compounds with recorded growth:
>>> test_value("O=C(Nc1sc2c(c1C(=O)O)CCCC2)c1cccc(C(F)(F)F)c1")
85.3
>>> test_value("O=C(Nc1nc(-c2ccccc2Cl)cs1)c1cc(-c2ccccc2)nc2ccc(Cl)cc12")
99.7
>>> test_value("COc1cc(-c2nc3sccn3c2-c2ccnc(NCCNS(=O)(=O)c3ccc(F)cc3)n2)ccc1F")
5.95
>>> test_value("O=C(Nc1ccc(Cl)cc1)Nc1ccc(Cl)c(Cl)c1")
12.6
>>> test_value("CC(=O)c1cc2c(N)c(C(=O)Nc3cncc4ccccc34)sc2nc1C")
106
>>> test_value("Cc1c(C2=CCCCC2)c2ccccn2c1C(=O)c1cccc(S(=O)(=O)N2CCOCC2)c1")
69.4

Query :: Tell me growth reported for "CC(C)CN(C(=O)c1ccc(Cl)cc1)c1c(N)n(CC(C)C)c(=O)[nH]c1=O"
Result :: 98.8

###

- System: HS 578T breast
- EXPERIMENT SUMMARY: NCI-60 one-dose screen, 48 h (100 = growth as untreated, 0 = no growth, -100 = all killed)
- ASSAY CONTEXT: 10 µM unless noted
- Procedure: Growth inhibition of the HS 578T human tumor cell line is measured as a screen for anti-cancer activity. Cells are grown in 96 well plates and exposed to the test compound for 48 hours. Compounds are tested at a single concentration, which is 10^-5 M for most compounds. The reported endpoint is percent growth (GI% or GIPRCNT), where numbers from 0 - 100% represent growth inhibition, and numbers from -100% - 0 represent cell death. For example, a value of 40 represents 60% growth inhibition. […]
This is part of a sample that, as a whole, favours compounds with a hit. Of some 83,000 tested, about 20% had one in any assay.
Measured growth values are reported for all entries that follow.
# number only, unit % dropped from output

Query :: Report its growth with HS 578T breast as the test system: "NC(=S)N/N=C(/c1ccccc1)c1ccccc1N"
Result :: 97.2

Query :: Report its growth with HS 578T breast as the test system: "COc1ccc(C(=O)/C=C/c2ccc(OCc3ccccc3)c(OC)c2)cc1OC"
Result :: 94.7

Query :: Report its growth with HS 578T breast as the test system: CCCCCCCCCCCCC1CCC/C=C\CCC(=O)O1 (centres undefined)
Result :: 107

Query :: Report its growth with HS 578T breast as the test system: "O=S(=O)(NCCCNc1nccc(-c2c(-c3ccccc3)nc3occn23)n1)c1ccc(Cl)cc1"
Result :: 96.7

###

- Tested on: UO-31 renal
- EXPERIMENT SUMMARY: NCI-60 one-dose screen, 48 h
- ASSAY CONTEXT: 10 µM unless noted
About 83,000 compounds went through this panel and 20% of them were active in at least one assay; those are over-represented in the sample as a whole. Active and inactive are the calls of the source. Rule for the calls: active = growth percent below 10; inactive = the rest.
I would appreciate it if you answered using one of these outcomes: Y = active, N = inactive

>>> group("Clc1ccc(C2CC(c3cccc(Nc4ccncc4)c3)=NN2c2ccccc2)cc1 (configuration not stated)")
"N"

Query :: Field: outcome | Entry: "COc1c(Cl)cc(Cl)c2ccc(C=C3C(=O)NC(=S)NC3=O)nc12"
Result :: N

Query :: Field: outcome | Entry: "C=C1C(=O)O[C@H]2[C@H]1CC/C(CNC(=O)/C=C/c1ccccc1F)=C\CC[C@@]1(C)O[C@@H]21"
Result :: Y

Query :: Field: outcome | Entry: "CC(=O)c1c(-c2ccc(OC(F)(F)F)cc2)nc2ccccn12"
Result :: N

Query :: Field: outcome | Entry: "COc1ccccc1Nc1cc(O)c2c(=O)cc(-c3ccccc3)oc2c1"
Result :: N

Query :: Field: outcome | Entry: "Cc1cc2cc3cc(C)c(N)cc3[n+](C)c2cc1N"
Result :: N
